- Tested on: 935938-334-R-J1-PDC spheroids with HUVEC/MSC, viability;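 also: compound exposure lasted seven days before viability was read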
- Test Details: Anticancer human tumor 935938-334-R-J1-PDC patient-derived small intestine adenocarcinoma cell line growth inhibition [PI3K]
- Experimental Context: second compound 1 µM; first compound 0.000316 µM; active compounds read low
Entries whose viability, T/C is below 70% take t; entries at or above 70% take f.

Exercise: For this compound, is viability, T/C lower than 70%? CC(=O)c1c(C)c2cnc(Nc3ccc(N4CCNCC4)cn3)nc2n(C2CCCC2)c1=O + Cc1nc(NC(=O)N2CCCC2C(N)=O)sc1-c1ccnc(C(C)(C)C(F)(F)F)c1
Solution: f

Exercise: For this compound, is viability, T/C lower than 70%? CC(=O)c1c(C)c2cnc(Nc3ccc(N4CCNCC4)cn3)nc2n(C2CCCC2)c1=O + CC(Nc1ncnc2nc[nH]c12)c1cc2cccc(Cl)c2c(=O)n1-c1ccccc1
Solution: f

Exercise: For this compound, is viability, T/C lower than 70%? Cn1ncnc1[C@H]1c2n[nH]c(=O)c3cc(F)cc(c23)N[C@@H]1c1ccc(F)cc1 + CC(Nc1ccc2c(c1)OCCn1cc(N3C(=O)OCC3C(F)F)nc1-2)C(N)=O
Solution: t

Exercise: For this compound, is viability, T/C lower than 70%? CC(C)n1nc(-c2ccc3oc(N)nc3c2)c2c(N)ncnc21 + Cc1nc(NC(=O)N2CCCC2C(N)=O)sc1-c1ccnc(C(C)(C)C(F)(F)F)c1
Solution: t

Exercise: For this compound, is viability, T/C lower than 70%? Cn1ncnc1[C@H]1c2n[nH]c(=O)c3cc(F)cc(c23)N[C@@H]1c1ccc(F)cc1 + Cc1nc(NC(=O)N2CCCC2C(N)=O)sc1-c1ccnc(C(C)(C)C(F)(F)F)c1
Solution: t

Exercise: For this compound, is viability, T/C lower than 70%? CC(C)n1nc(-c2ccc3oc(N)nc3c2)c2c(N)ncnc21 + CC(Nc1ccc2c(c1)OCCn1cc(N3C(=O)OCC3C(F)F)nc1-2)C(N)=O
Solution: t
